system: 429239-143-T-J1-PDC complex spheroid viability; assay: Anticancer human tumor 429239-143-T-J1-PDC patient-derived small cell lung carcinoma cell line growth inhibition [POLQ]; details: second compound 1 µM; first compound 0.316 µM; hits give low values;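 note: luminescence signal used as surrogate measure of viable cells; spheroids exposed to compounds for seven days before readout; 100% = DMSO vehicle control viability as luminescence relative to vehicle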
parameter.measured: viability, T/C

These solved cases illustrate the format of a correct answer.
O=c1[nH]cc(F)c(=O)[nH]1 + Nc1ccc(C#CCN(C(=O)Cc2ncc(C(F)(F)F)cc2C(F)(F)F)c2ccc(F)cc2)nn1: 105%
CCc1cc2c(N3CCc4c(cc(Cn5ccnc5)cc4-c4cn(C)nc4C(F)(F)F)C3=O)ccnc2c(OC)n1 + COC1C(OC(N)=O)C(O)C(Oc2ccc3c(O)c(NC(=O)c4ccc(O)c(CC=C(C)C)c4)c(=O)oc3c2C)OC1(C)C: 61.8%
COc1cc(C2c3cc4c(cc3C(OC3OC5COC(C)OC5C(O)C3O)C3COC(=O)C23)OCO4)cc(OC)c1O (stereo not given) + Cc1cccc(N(C)C(=O)C2C(O)CCN2c2nc(C)cc(C(F)(F)F)c2C#N)c1: 52%
C=CC(=O)N1CCN(c2nc(=O)n(-c3c(C)ccnc3C(C)C)c3nc(-c4c(O)cccc4F)c(F)cc23)C(C)C1 (stereo not given) + COC1C(OC(N)=O)C(O)C(Oc2ccc3c(O)c(NC(=O)c4ccc(O)c(CC=C(C)C)c4)c(=O)oc3c2C)OC1(C)C: 99.8%
CCc1cc2c(N3CCc4c(cc(Cn5ccnc5)cc4-c4cn(C)nc4C(F)(F)F)C3=O)cc(C)nc2c(OC)n1 + Nc1ccc(C#CCN(C(=O)Cc2ncc(C(F)(F)F)cc2C(F)(F)F)c2ccc(F)cc2)nn1: 91.7%

Recorded viability, T/C (compound COc1cccc2c1C(=O)c1c(O)c3c(c(O)c1C2=O)CC(O)(C(=O)CO)CC3OC1CC(N)C(O)C(C)O1 (stereo not given) + COC1C(OC(N)=O)C(O)C(Oc2ccc3c(O)c(NC(=O)c4ccc(O)c(CC=C(C)C)c4)c(=O)oc3c2C)OC1(C)C ): 12.7%

Recorded viability, T/C (compound C=CCn1c(=O)c2cnc(Nc3ccc(N4CCN(C)CC4)cc3)nc2n1-c1cccc(C(C)(C)O)n1 + COC1C(OC(N)=O)C(O)C(Oc2ccc3c(O)c(NC(=O)c4ccc(O)c(CC=C(C)C)c4)c(=O)oc3c2C)OC1(C)C ): 82.2%

Recorded viability, T/C (compound C=CCn1c(=O)c2cnc(Nc3ccc(N4CCN(C)CC4)cc3)nc2n1-c1cccc(C(C)(C)O)n1 + Nc1ccc(C#CCN(C(=O)Cc2ncc(C(F)(F)F)cc2C(F)(F)F)c2ccc(F)cc2)nn1 ): 89.3%

Recorded viability, T/C (compound CCCS(=O)(=O)Nc1ccc(F)c(C(=O)c2c[nH]c3ncc(-c4ccc(Cl)cc4)cc23)c1F + Nc1ccc(C#CCN(C(=O)Cc2ncc(C(F)(F)F)cc2C(F)(F)F)c2ccc(F)cc2)nn1 ): 97.4%

Recorded viability, T/C (compound CNCc1ccc(-c2[nH]c3cc(F)cc4c3c2CCNC4=O)cc1 + Cc1cccc(N(C)C(=O)C2C(O)CCN2c2nc(C)cc(C(F)(F)F)c2C#N)c1 ): 72.3%

Recorded viability, T/C (compound CCc1c2c(nc3ccc(O)cc13)-c1cc3c(c(=O)n1C2)COC(=O)[C@]3(O)CC + COC1C(OC(N)=O)C(O)C(Oc2ccc3c(O)c(NC(=O)c4ccc(O)c(CC=C(C)C)c4)c(=O)oc3c2C)OC1(C)C ): 12.5%

Recorded viability, T/C (compound COc1cccc2c1C(=O)c1c(O)c3c(c(O)c1C2=O)CC(O)(C(=O)CO)CC3OC1CC(N)C(O)C(C)O1 (stereo not given) + Cc1cccc(N(C)C(=O)C2C(O)CCN2c2nc(C)cc(C(F)(F)F)c2C#N)c1 ): 14.7%

All figures here come from PubChem BioAssay AID1963845.
